Please go through the items and note down their hERG current change (%, negative = inhibition) at 10uM.
Measured On: human ether-à-go-go-related gene (hERG) potassium channel (human, UniProt Q12809)
Sequence (Q12809 whole entry, looked up): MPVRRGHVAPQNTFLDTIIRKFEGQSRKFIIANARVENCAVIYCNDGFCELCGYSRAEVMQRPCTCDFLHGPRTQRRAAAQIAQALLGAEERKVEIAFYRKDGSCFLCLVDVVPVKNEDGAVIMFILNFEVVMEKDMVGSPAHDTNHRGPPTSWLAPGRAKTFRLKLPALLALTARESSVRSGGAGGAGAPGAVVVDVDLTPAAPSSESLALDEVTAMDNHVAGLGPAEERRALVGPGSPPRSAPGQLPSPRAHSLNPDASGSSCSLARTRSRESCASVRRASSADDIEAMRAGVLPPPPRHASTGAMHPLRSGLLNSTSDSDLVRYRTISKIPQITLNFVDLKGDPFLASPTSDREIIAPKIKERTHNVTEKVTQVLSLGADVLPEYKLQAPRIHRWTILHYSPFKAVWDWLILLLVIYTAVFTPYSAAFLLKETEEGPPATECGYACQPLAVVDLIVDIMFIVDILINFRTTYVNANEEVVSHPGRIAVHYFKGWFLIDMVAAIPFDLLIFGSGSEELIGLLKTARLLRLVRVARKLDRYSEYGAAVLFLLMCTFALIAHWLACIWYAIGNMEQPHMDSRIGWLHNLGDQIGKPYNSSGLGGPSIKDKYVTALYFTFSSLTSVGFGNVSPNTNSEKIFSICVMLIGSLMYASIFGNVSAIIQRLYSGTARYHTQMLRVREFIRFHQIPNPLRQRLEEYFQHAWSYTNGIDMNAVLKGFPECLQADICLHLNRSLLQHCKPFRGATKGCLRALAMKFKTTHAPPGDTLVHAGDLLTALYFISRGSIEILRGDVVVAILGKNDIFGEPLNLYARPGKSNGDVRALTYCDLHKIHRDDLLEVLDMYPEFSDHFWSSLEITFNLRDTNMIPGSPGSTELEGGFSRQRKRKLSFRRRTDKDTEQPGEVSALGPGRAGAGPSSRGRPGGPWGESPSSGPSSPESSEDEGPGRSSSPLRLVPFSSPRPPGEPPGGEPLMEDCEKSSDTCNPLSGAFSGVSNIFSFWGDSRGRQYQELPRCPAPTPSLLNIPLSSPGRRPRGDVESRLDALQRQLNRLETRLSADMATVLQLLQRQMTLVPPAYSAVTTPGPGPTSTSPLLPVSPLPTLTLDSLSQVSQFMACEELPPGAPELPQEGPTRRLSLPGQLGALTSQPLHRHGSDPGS
Experimental Protocol: primary screen, population patch clamp on CHO cells stably expressing hERG; higher = less effect of the substance;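 further: peak tail current of the secondary pulse compared with the same well before compound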
Among all 310,000 compounds or so, about 14,000 (4.5%) showed an effect of 50% or more. Effects have a minus sign here. The sample as a whole holds a higher share of strong results than the screen did.
Numeric answer only, unit % assumed.

**Query** Recorded hERG current change (%, negative = inhibition) at 10uM for CCCCNC(=O)C1CCN(C/C(C)=C/c2ccccc2)CC1.O=C(O)C(=O)O with human ether-à-go-go-related gene (hERG) potassium channel (human, UniProt Q12809), please?
**Result** -63

**Query** Recorded hERG current change (%, negative = inhibition) at 10uM for CCOC(=O)N1CCN(C/C(C)=C/c2ccccc2)CC1 with human ether-à-go-go-related gene (hERG) potassium channel (human, UniProt Q12809), please?
**Result** -25.1

**Query** Recorded hERG current change (%, negative = inhibition) at 10uM for CCN(Cc1ccccc1)C(=O)C1CCN(C(=O)Nc2ccccc2)CC1 with human ether-à-go-go-related gene (hERG) potassium channel (human, UniProt Q12809), please?
**Result** 14.8

**Query** Recorded hERG current change (%, negative = inhibition) at 10uM for C/C(=C\c1ccccc1)CN1CCC(C(=O)N2CCCCC2)CC1.O=C(O)C(=O)O with human ether-à-go-go-related gene (hERG) potassium channel (human, UniProt Q12809), please?
**Result** -47.5

**Query** Recorded hERG current change (%, negative = inhibition) at 10uM for C/C(=C\c1ccccc1)CN1CCC(C(=O)N2CCC(C)CC2)CC1.O=C(O)C(=O)O with human ether-à-go-go-related gene (hERG) potassium channel (human, UniProt Q12809), please?
**Result** -63
